Source listed as paper PMC7283026.

- protocol: Brain distribution study following i.v. bolus and i.v. infusion in rats
- applied conditions: male, Sprague Dawley, rat, in vivo

{"compound": "O=C(Nc1cnn2ccc(N3CCC[C@@H]3c3cc(F)ccc3F)nc12)N1CC[C@H](O)C1 [Larotrectinib, larotrectinib]", "Kp at 4 h": 0.027}

====

- protocol: Brain distribution study following i.v. bolus and i.v. infusion in rats
- applied conditions: male, Sprague Dawley, rat, in vivo

{"compound": "C[C@@H](Oc1cc(-c2cnn(C3CCNCC3)c2)cnc1N)c1c(Cl)ccc(F)c1Cl [Crizotinib, crizotinib]", "Kp at 5 h": 0.041}
{"compound": "O=C(Nc1cnn2ccc(N3CCC[C@@H]3c3cc(F)ccc3F)nc12)N1CC[C@H](O)C1 [Larotrectinib, larotrectinib]", "Kp at 5 h": 0.031}

====

- protocol: Plasma pharmacokinetics in KM12-Luc ITC tumor-bearing mice
- Format: in vivo, Balb/c nude mice
- applied conditions: Balb/c nude, mouse, in vivo, po, 120 mg/kg/day
experimental endpoint: AUC(0-t)

{"molecule": "CN1CCN(c2ccc(C(=O)Nc3n[nH]c4ccc(Cc5cc(F)cc(F)c5)cc34)c(NC3CCOCC3)c2)CC1 [Entrectinib, entrectinib]", "experimental endpoint": "AUC(0-t)", "result": "99.9 µM·h"}

====

- experimental system: UniProtKB P21447
- Sequence (P21447 whole entry): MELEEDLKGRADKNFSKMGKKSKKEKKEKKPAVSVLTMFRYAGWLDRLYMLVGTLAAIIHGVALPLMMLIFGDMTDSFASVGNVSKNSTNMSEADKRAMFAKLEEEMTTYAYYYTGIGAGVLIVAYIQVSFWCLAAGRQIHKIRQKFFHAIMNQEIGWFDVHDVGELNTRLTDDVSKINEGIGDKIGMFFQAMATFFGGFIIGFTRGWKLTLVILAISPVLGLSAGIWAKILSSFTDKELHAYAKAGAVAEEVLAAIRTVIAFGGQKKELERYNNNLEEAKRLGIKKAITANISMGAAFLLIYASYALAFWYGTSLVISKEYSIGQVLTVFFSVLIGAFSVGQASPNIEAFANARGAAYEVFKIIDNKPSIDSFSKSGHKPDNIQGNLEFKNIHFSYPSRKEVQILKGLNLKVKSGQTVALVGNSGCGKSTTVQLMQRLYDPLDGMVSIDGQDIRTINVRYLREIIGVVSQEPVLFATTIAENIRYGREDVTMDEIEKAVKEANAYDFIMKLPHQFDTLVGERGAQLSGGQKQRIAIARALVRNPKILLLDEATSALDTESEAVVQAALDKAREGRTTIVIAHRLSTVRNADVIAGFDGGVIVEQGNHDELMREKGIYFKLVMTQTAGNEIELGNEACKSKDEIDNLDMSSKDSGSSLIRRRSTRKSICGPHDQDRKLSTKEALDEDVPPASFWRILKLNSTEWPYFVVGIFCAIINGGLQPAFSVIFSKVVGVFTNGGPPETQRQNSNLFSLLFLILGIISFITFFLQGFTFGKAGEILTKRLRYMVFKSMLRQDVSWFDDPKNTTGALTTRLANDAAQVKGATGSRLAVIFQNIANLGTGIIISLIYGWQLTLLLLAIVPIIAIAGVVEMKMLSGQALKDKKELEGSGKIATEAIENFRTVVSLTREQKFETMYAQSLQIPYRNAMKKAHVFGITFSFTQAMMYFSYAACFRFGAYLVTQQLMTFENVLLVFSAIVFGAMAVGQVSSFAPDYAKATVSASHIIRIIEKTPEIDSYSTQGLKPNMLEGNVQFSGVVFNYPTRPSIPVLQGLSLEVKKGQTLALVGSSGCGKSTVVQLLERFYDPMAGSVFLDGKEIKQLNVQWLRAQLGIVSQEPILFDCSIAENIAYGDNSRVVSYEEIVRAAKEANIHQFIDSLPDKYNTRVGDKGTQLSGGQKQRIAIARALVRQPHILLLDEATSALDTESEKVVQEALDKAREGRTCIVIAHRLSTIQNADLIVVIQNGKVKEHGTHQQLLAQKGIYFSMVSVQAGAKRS
- Assay type: in vitro ADME
- applied conditions: LLC-PK1
efflux ratio at 3.5 h, 1 µM reference

{"smiles str": "C[C@H]1O[C@@H](O[C@H]2[C@@H](O)C[C@H](O[C@H]3[C@@H](O)C[C@H](O[C@H]4CC[C@@]5(C)[C@H](CC[C@@H]6[C@@H]5C[C@@H](O)[C@]5(C)[C@@H](C7=CC(=O)OC7)CC[C@]65O)C4)O[C@@H]3C)O[C@@H]2C)C[C@H](O)[C@@H]1O", "efflux ratio at 3.5 h, 1 µM": 10}
{"smiles str": "O=C(Nc1cnn2ccc(N3CCC[C@@H]3c3cc(F)ccc3F)nc12)N1CC[C@H](O)C1", "efflux ratio at 3.5 h, 1 µM": 20}

====

Papp B→A at 3.5 h, 1 µM reference
- experimental system: human P-gp (Homo sapiens)
- Sequence (P08183 whole entry): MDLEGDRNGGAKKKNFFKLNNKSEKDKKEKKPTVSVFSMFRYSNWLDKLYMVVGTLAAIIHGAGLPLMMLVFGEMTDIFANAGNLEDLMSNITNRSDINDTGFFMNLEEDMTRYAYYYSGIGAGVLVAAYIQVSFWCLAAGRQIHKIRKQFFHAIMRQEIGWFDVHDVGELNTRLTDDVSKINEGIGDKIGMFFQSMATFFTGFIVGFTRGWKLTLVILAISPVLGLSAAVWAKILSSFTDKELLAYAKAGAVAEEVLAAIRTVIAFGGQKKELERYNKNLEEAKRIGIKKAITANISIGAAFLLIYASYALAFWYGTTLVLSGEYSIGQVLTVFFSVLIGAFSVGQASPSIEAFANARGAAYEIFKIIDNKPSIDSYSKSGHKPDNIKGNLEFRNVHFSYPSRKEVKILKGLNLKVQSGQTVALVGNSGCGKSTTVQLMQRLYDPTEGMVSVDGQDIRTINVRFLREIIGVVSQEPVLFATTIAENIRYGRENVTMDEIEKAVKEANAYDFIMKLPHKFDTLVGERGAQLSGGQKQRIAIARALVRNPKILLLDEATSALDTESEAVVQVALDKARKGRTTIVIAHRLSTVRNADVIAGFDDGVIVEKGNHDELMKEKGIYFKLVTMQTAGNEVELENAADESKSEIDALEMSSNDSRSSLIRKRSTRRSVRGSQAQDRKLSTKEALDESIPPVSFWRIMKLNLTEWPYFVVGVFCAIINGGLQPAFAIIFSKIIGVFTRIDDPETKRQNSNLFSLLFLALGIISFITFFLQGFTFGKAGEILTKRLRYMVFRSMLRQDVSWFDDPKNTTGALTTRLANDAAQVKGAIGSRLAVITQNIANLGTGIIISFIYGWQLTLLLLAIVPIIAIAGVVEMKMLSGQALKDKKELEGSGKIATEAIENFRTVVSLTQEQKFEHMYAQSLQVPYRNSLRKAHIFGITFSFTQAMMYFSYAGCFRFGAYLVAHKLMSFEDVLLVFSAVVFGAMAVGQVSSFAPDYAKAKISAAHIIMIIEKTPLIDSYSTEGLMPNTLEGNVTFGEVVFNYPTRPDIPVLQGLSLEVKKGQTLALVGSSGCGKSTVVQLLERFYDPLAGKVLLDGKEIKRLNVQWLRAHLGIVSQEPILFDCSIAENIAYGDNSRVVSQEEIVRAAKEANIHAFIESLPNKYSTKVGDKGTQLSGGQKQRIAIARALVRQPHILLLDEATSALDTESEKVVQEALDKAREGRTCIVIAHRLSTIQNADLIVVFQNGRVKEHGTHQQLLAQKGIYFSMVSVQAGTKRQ
- Format: in vitro ADME
- applied conditions: LLC-PK1
experimental endpoint: Papp B→A at 3.5 h, 1 µM (×10⁻⁶ cm/s)

{"smiles str": "C[C@H]1O[C@@H](O[C@H]2[C@@H](O)C[C@H](O[C@H]3[C@@H](O)C[C@H](O[C@H]4CC[C@@]5(C)[C@H](CC[C@@H]6[C@@H]5C[C@@H](O)[C@]5(C)[C@@H](C7=CC(=O)OC7)CC[C@]65O)C4)O[C@@H]3C)O[C@@H]2C)C[C@H](O)[C@@H]1O", "recorded number": 12.1}
{"smiles str": "O=C(Nc1cnn2ccc(N3CCC[C@@H]3c3cc(F)ccc3F)nc12)N1CC[C@H](O)C1", "recorded number": 18.2}
{"smiles str": "CN1CCN(c2ccc(C(=O)Nc3n[nH]c4ccc(Cc5cc(F)cc(F)c5)cc34)c(NC3CCOCC3)c2)CC1", "recorded number": 19.7}
{"smiles str": "C[C@@H](Oc1cc(-c2cnn(C3CCNCC3)c2)cnc1N)c1c(Cl)ccc(F)c1Cl", "recorded number": 38.8}

====

- protocol: Kinetic lipid membrane binding assay
- Assay type: in vitro ADME, porcine
- applied conditions: pig, pH 7.4

{"smiles str": "CN1CCN(c2ccc(C(=O)Nc3n[nH]c4ccc(Cc5cc(F)cc(F)c5)cc34)c(NC3CCOCC3)c2)CC1", "half-life at 10 µM (min)": 9.6}
{"smiles str": "O=C(Nc1cnn2ccc(N3CCC[C@@H]3c3cc(F)ccc3F)nc12)N1CC[C@H](O)C1", "half-life at 10 µM (min)": 6.2}
{"smiles str": "C[C@@H](Oc1cc(-c2cnn(C3CCNCC3)c2)cnc1N)c1c(Cl)ccc(F)c1Cl", "half-life at 10 µM (min)": 7.4}
